Values were extracted from patent EP0241291B1.

system: anaphylactic bronchospasm in sensitized guinea pigs; assay: Inhibition of anaphylactic bronchospasm in sensitized guinea pigs with antigen-induced bronchoconstriction; format: in vivo, male Hartley guinea pigs; conditions: Cavia porcellus, po, 2 hours before challenge with ovalbumin; sensitized guinea pigs; read-out: ED50 (p.o.)-in anaphylactic bronchospasm test
measured-parameter: ED50 (mg/kg)
All answers are understood in mg/kg, so give the number only.

compound | measured-parameter | quantitative-readout
O=c1c2c(c3cccnc3n1-c1cccc(Cl)c1)CCCCO2 [Compound 3] | ED50 | 5
O=c1c2c(c3cccnc3n1-c1ccccc1)CCCCO2 [Compound 4] | ED50 | 1
O=c1c2c(c3cccnc3n1-c1ccccc1)CCCC2 [Compound 2] | ED50 | 2

// switching to the query compound
Give reported ED50 value for O=c1c2c(c3cccnc3n1-c1cccc(Cl)c1)CCCC2 [Compound 1]
2
